Item-by-item account of pIC50
biological target: Glycogen synthase kinase-3 beta (Homo sapiens)
Sequence (P49841 whole entry): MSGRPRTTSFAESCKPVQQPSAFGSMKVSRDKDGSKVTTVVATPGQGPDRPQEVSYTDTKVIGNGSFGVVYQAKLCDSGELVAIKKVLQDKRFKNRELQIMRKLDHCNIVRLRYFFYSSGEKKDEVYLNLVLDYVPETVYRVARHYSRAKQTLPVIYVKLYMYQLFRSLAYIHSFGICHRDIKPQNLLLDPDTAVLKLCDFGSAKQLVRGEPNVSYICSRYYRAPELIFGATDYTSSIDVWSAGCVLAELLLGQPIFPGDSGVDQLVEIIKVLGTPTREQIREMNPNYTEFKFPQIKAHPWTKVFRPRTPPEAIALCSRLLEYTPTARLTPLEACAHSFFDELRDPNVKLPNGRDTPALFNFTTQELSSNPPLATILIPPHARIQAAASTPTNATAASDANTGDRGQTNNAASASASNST
A value of pIC50 is the negative decimal logarithm of a concentration given in moles per litre.

Example compounds with recorded pIC50:
> print(dat)
                                   compound                              assay.target   val
1  Cn1cc(C2=C(c3cc(Cl)ccc3Cl)C(=O)NC2=O)c2ccccc21  Glycogen synthase kinase-3 beta (Homo sapiens)  8.15
2  COc1cc(C2=C(c3cn(CCN4CCN(C)CC4)c4ccccc34)C(=O)NC2=O)c2occc2c1  Glycogen synthase kinase-3 beta (Homo sapiens)  9.85
3  Cn1cc(-c2cc(-c3nc4ccccc4[nH]3)c(=O)[nH]n2)ccc1=O  Glycogen synthase kinase-3 beta (Homo sapiens)  6.80

Now consider the entry below.
Request the reported pIC50 associated with Cn1cc(C2=C(c3cn(CCCSC(=N)N)c4ccccc34)C(=O)NC2=O)c2ccccc21 [BISINDOLYLMALEIMIDE IX] 8.55
